Would you mind telling me the reported RUNX1 binding intensity of each entry?
# Assayed System: RUNX1 (UniProt Q01196)
# Sequence (Q01196 whole entry): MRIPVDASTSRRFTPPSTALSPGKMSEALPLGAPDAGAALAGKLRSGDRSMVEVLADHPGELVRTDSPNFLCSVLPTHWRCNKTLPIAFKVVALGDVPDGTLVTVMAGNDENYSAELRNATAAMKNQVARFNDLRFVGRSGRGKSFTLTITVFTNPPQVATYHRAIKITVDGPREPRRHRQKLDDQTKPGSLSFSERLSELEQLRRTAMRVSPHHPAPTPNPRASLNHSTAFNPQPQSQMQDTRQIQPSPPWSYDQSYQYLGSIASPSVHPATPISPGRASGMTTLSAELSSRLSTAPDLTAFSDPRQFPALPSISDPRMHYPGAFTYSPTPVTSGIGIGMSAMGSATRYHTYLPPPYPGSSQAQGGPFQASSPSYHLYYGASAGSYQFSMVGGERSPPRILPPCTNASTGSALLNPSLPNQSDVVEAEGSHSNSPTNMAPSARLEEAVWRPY
# Run Description: RUNX1 binding intensity (PBM fluorescence), RUNX1 alone (arbitrary fluorescence units); higher = stronger binding
# Experimental Context: RUNX1 concentration 2 nM; ETS1 concentration 0 nM
Number only, no unit.

Return reported RUNX1 binding intensity. Input sequence: "TGCCACCTGCTTCCTGCCTGTGTAGCCACAAGGGAC"
910

Input "ACCCTGAAATTACCCGGATGTGGTCCCCGCGCGCGC" , output reported RUNX1 binding intensity.
898

Look up and state reported RUNX1 binding intensity for "GCCAACAGGAAGCTGGAAGCCAACCGCACTGTGTGC"
899

Please give measured RUNX1 binding intensity of the following entry: "CACTTCCTATCGCTACATAACAAATTACCACAGACT"
2490

Give me measured RUNX1 binding intensity, please, for this sequence: "CATTCAGTAAAAGGATGTGGTTTAGAACAGATGAAA"
958

Look up and state reported RUNX1 binding intensity for "TCTAGTAAAAGAGGAAGTTCTTAACCACATTTCCAT"
1020

Name the recorded RUNX1 binding intensity of the sequence listed here: "CAAAGTGATGGGGGAAATGGTTGTGGTTTTGGGTGG"
1180

Supply measured RUNX1 binding intensity of "ACAGCTCACACAGGAAATACAAACCTCAAAAAGCAA" in your reply.
1070

Report RUNX1 binding intensity, nothing else, for this sequence: "AAAGAACTTCCTGAGGTGCTTGAGGTTAGGCTATGG"
727

Give recorded RUNX1 binding intensity. "AGCTAGGACAGGATGTGAAAACCACACTGACAAAGT"
919

Give recorded RUNX1 binding intensity. "ACTTGACTTCCTGTGGGGTGTGTGGTGTCTGCACTT"
798

Supply recorded RUNX1 binding intensity for "CTGAGTGAGACAGGATGTGGGCAGACCTCTAACACA" here.
733

Dear colleague, please send me the reported RUNX1 binding intensity for "AGCTCTGCCAGGAAGTGAGAACCACAGGCCTCCCCT" when you can.
837

Consider the sequence "ACACAGAGAGTGAGAGGAAGTGGTTTAGAGATGAGA" . State its measured RUNX1 binding intensity.
769

Consider the sequence "GGAGCGCGCCGGAAACGCGCGGCTGCGGCCCGGGAG" . State its measured RUNX1 binding intensity.
722

Give a short answer stating reported RUNX1 binding intensity for "CAAAAGTGCTTCCTCTCGAGGGGTTGTGGTTCTTAC" .
716

Tell me its RUNX1 binding intensity given "TGCAATTGGCAGACAGGAAACCGCGGCGTTTTCTGG" as the entry.
764

Output measured RUNX1 binding intensity for this item: "TTACGTTAAGGAGGAAACTCTGTGGTTAAACTGTAG"
1230

Name the recorded RUNX1 binding intensity of the sequence listed here: "CACCCATAGCACCCCGGAAACCACCTCCACCACCTG"
1390

State its RUNX1 binding intensity: "GCCGCTGCCTCTTCCTGTGTGGTTTTTCAGGGCTTA"
1050

* * *

Would you mind telling me the reported RUNX1 binding intensity of each entry?
# Assayed System: RUNX1 (UniProt Q01196)
# Run Description: RUNX1 binding intensity (PBM fluorescence) in presence of ETS1, normalised to RUNX1-only experiment (arbitrary fluorescence units); higher = stronger binding
# Experimental Context: RUNX1 concentration 2 nM; ETS1 concentration 25 nM
Enter a number only.

Look up RUNX1 binding intensity of "AGATGAGGAAGTTGGGGTTTAGAGTGGTTAAACTGT" and report it.
1020

Supply RUNX1 binding intensity value. Item: "AGCTTCCGAGTCTGTTGTGGAGTGGGAACCGCGACT"
1020

In one line, give reported RUNX1 binding intensity of the entry "TGGCATTCTCCTTCCTGTCTCCTAACCACAGCCCAC" .
4690

Indicate the recorded RUNX1 binding intensity value for this sequence: "GCAGGACTTCCTGTGTTGTGCTAACCTCAAATTACA"
2030

Provide RUNX1 binding intensity value for the following sequence: "AATAAAGCTACAGACTTCCGCCCACAGGTCGCCGCT"
1360

Provide measured RUNX1 binding intensity value, entry: "AAACATCATAGGAAGTGGATTTTGTGGTGAGAGACA"
1130

Determine its reported RUNX1 binding intensity: "ACAACTTCCTGTGGGATTTTTGGTGTCTGCGGCTCA"
2810

Indicate the recorded RUNX1 binding intensity value for this sequence: "TCTTTAAAACCCGGAAGTTCCTGTGGTTCATACGCT"
1940

For the sequence "CTGCCGGAAGCTGCCCCTCCACCATTTTGTGGCCCG" , give its reported RUNX1 binding intensity.
1280

Specify RUNX1 binding intensity for "GCCCCCATGCTTCCTGTTGTGGGAGATGAAGTGTGG" and stop.
1650

Please look at this sequence and report its RUNX1 binding intensity: "TCAGAGACTTCCGCTCAGCAGCAGCTGCGGCCAGGC"
1850

Give recorded RUNX1 binding intensity. "CCAGACCCGGCGGAACTACCGTGCCCACAAGGCAGC"
894
